# system: T1, CAPRIN-1 protein expressed on the membrane surface of human cancer cells (human, UniProt Q14444 2-709)
# T1 sequence (looked up): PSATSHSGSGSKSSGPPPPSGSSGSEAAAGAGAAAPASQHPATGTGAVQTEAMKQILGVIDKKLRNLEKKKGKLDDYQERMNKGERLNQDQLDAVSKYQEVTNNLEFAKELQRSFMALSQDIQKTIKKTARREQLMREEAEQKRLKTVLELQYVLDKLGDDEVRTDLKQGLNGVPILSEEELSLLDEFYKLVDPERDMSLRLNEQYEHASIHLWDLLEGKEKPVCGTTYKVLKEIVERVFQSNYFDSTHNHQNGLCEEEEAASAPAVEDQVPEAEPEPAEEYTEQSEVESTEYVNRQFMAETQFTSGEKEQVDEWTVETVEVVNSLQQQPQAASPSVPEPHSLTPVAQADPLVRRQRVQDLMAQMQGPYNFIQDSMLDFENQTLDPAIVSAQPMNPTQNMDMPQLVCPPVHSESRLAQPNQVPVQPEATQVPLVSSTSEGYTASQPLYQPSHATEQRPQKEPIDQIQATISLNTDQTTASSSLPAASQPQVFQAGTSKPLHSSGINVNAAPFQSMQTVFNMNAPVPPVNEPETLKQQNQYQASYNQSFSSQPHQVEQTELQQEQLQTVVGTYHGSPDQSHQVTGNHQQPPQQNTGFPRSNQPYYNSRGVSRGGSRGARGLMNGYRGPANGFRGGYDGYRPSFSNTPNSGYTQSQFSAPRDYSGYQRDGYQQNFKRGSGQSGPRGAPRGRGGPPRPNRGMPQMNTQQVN
# assay summary: cell-based or functional assay
Attribute: ADCC cytotoxic activity (51Cr release) on G-361
measurement type: ADCC cytotoxic activity (51Cr release) on G-361

{"binder": "humanized antibody #1 (antibody, V domains shown) VH: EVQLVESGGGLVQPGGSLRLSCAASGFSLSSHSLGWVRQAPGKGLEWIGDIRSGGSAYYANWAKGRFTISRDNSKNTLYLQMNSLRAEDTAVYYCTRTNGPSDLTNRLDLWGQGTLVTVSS VL: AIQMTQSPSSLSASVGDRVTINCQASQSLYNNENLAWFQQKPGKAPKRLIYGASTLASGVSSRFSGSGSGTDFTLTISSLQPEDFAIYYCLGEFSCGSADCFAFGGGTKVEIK", "observed result": "≥ 15%"}
{"binder": "humanized antibody #3 (antibody, V domains shown) VH: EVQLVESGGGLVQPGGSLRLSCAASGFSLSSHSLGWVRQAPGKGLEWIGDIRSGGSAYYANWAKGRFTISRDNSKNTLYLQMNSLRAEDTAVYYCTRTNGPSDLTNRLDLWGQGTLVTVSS VL: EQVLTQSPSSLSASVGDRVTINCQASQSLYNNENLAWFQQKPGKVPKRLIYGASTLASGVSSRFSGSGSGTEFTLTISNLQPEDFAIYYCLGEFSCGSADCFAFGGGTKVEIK", "observed result": "≥ 21%"}
